Assay: NCI Yeast Anticancer Drug Screen. Data for the rad50 strain (AID 155);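 further: 0% = growth of vehicle-only cultures of the same strain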
Details: S. cerevisiae rad50 strain growth inhibition; at 50.0 µM; active compounds read high
Compounds without any hit were thinned out: in the full panel of roughly 79,000, 15% have a hit.
growth inhibition values by entry
reportedMetric: growth inhibition (%)

compound	resultValue
Cc1[nH]c(=O)nc(N/N=C/c2ccc(O)cc2)c1C(=O)Nc1ccc(Cl)cc1	-17.6
Cn1c(=O)c2[nH]c(/N=N\n3ccc4ccccc43)nc2n(C)c1=O	2.1
CCCc1nnnn1C12CC3CC(CC(C3)C1)C2	30.6
CCOC(=O)NC(C)(C)CN(CCO)C(=O)OCC	-5.9
NCCCC(NC(=O)CCCCCCCCN=C(N)N)C(O)CCCCCCCCN=C(N)N (stereo unspecified)	20.9
COc1ccc(/C=N/Nc2c([N+](=O)[O-])cc(C)cc2[N+](=O)[O-])cc1	35.1
NC(CSC(c1ccccc1)(c1ccccc1)c1ccccc1)C(=O)OC(c1ccccc1)c1ccccc1 (stereo unspecified)	19.3
CCCCC/C(=C\c1ccccc1)C1OCC(COC(C)=O)O1 (stereo unspecified)	-37.6
O=C1CSC(=S)N1c1ccco1	3.4
CCCCOC(=O)c1cc(/C=C\c2ccccc2)on1	-12.9
Cc1cnc2ccccc2c1	-12.2

---

Assay: NCI Yeast Anticancer Drug Screen. Data for the mec2-1 strain (AID 157)
Conditions: S. cerevisiae mec2-1 strain, at 50.0 µM, active compounds read high
This is part of a sample that, as a whole, favours compounds with a hit. Of some 79,000 tested, about 15% had one in any assay.
reportedMetric: growth inhibition (%)

compound	reportedMetric	resultValue
NN(c1ccccc1)c1ccccc1	growth inhibition	6.45
NCCNc1nc(NCCN)nc(N(CCN)CCN)n1	growth inhibition	-4.9
O=C(c1ccccc1)c1cccc(C(=O)c2ccccc2)n1	growth inhibition	-12.7
CCC(O)(c1ccccc1)C(O)c1ccccc1 (stereo unspecified)	growth inhibition	8.9
NC(Cc1cc(I)c(Oc2ccc(O)c(I)c2)c(I)c1)C(=O)O (stereo unspecified)	growth inhibition	-1.35
O=C1c2ccccc2C(=O)N1CC#CCN1C(=O)c2ccccc2C1=O	growth inhibition	-31.8
Nc1nnc(-c2ccccc2)s1	growth inhibition	5.95
O=C(Oc1cccc2ccccc12)c1cccnc1	growth inhibition	-2
COc1c2c(cc3c1C(=O)Cc1ccc4c(c1CN(C)CC3)OCO4)OCO2	growth inhibition	-3.4
CN(C)CCCc1c2ccccc2nc2ccc(Cl)cc12	growth inhibition	4.5
Cc1cccc(C[P+](C/C=C/c2ccccc2)(c2ccccc2)c2ccccc2)c1	growth inhibition	99.7
CCC(C(C)=O)C(C)C (stereo unspecified)	growth inhibition	6.55
O=C[c-]1[c-][c-][c-][c-]1.[Fe+2].[c-]1[c-][c-][cH-][c-]1	growth inhibition	58.5
CC(C)(CO)C(Cl)C(=O)NCCC(=O)O (stereo unspecified)	growth inhibition	-14.9
O=C(O)c1ccccn1	growth inhibition	-3
COc1cc(Nc2cnc3ccc(C(F)(F)F)cc3n2)cc(OC)c1OC	growth inhibition	4.9
O=C1S/C(=C2\C(=O)N(CN3CCCCC3)c3ccccc32)C(=O)N1CN1CCCCC1	growth inhibition	-13.1
CCOC(=O)N(C)C(=C(F)F)C(F)(F)F	growth inhibition	-0.1
Nc1ccc(C(=O)NO)c(O)c1	growth inhibition	18.9
COC(=O)C1C(=O)C=C(O)C2CCCCC21 (stereo unspecified)	growth inhibition	-2.85
NC(=Nc1ccc([N+](=O)[O-])cc1)c1ccccc1	growth inhibition	1.6
COc1ccc(/C(C)=N/NC(=O)CC(=O)N(C(=O)c2ccccc2)c2ccc(C)cc2)cc1	growth inhibition	-36
C1=Cc2ccccc2Nc2ccccc21	growth inhibition	-7.35
C/C(=N\n1cc(-c2ccccc2)nc1N)c1ccccc1	growth inhibition	4.2
CC(=O)Nc1ccc2cc(-c3ccc(Cl)cc3)c3nnnn3c2n1	growth inhibition	4.85
CCCCCCCCCC(=O)N/N=C/c1c[nH]c2ccccc12	growth inhibition	28.4

---

Experiment: NCI Yeast Anticancer Drug Screen. Data for the sgs1 mgt1 strain (AID 161);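 further: 0% = growth of cultures given vehicle only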
Settings: S. cerevisiae sgs1 mgt1 strain, at 50.0 µM, active compounds read high
Compounds without any hit were thinned out: in the full panel of roughly 79,000, 15% have a hit.
Tick Condition met if growth inhibition is 30% or greater. Tick Condition not met if growth inhibition is less than 30%.

compound	class
N#CCc1cn(-c2ccccc2)nn1	Condition not met
O=C(O)CCc1ccc(NC(=O)CCl)cc1	Condition not met
COc1cc(/C=C(\C)c2ccc3c(c2)OCO3)cc(OC)c1OC	Condition met
C=C1C(=O)OC2CC3(C)C=CC(=O)C(=C)C3CC12 (stereo unspecified)	Condition met
BrC1CCC(Br)CC1 (stereo unspecified)	Condition not met
CC(OC(=O)CC(c1ccccc1)N1CCCCC1)c1ccccc1 (stereo unspecified)	Condition met
c1ccc(COc2ccc3c(c2)CN(Cc2ccccc2)CO3)cc1	Condition met
O=[N+]([O-])c1ccc(/C=C2/c3ccccc3-c3nc4ccccc4cc32)cc1	Condition not met
CC(C)=CCc1c(C)cc2cc3c(c(O)c2c1O)C(O)=CC(=O)C3(CC=C(C)C)C/C=C(\C)CO (stereo unspecified)	Condition met
CC1=C/C(=N\O)C(C(O)(C(F)(F)F)C(F)(F)F)C(C)(C)C1 (stereo unspecified)	Condition not met

---

Assay: NCI Yeast Anticancer Drug Screen. Data for the mec2-1 strain (AID 157)
Conditions: S. cerevisiae mec2-1 strain, at 50.0 µM
About 79,000 compounds went through this panel and 15% of them were active in at least one assay; those are over-represented in the sample as a whole. Active and inactive are the calls of the source. Cut-off read from the data, not from the text of the source: active = growth inhibition above about 70%; inactive = the rest.
Possible outcomes: active, inactive

compound	class
CC(C)N(C(=S)[S-])C(C)C.CC(C)N(C(=S)[S-])C(C)C.[Zn]	active
CCCC[n+]1cc(C(N)=O)cc2ccccc21	inactive
CC1(C)OC(COCCOCCCCCO)C(COCCOCCCCCO)O1 (configuration not stated)	inactive
CC(=O)c1c(Cl)cc(Cl)c(Cl)c1Cc1c(Cl)c(Cl)cc(Cl)c1C(C)=O	inactive
Cn1c(=O)cc2n(C)c3ccccc3n2c1=O	inactive
NC(=S)C(=S)NCCO	inactive
Cc1ccccc1N=C(N)Nc1ccccc1	inactive

---

Assay: NCI Yeast Anticancer Drug Screen. Data for the mec2-1 strain (AID 157)
Conditions: S. cerevisiae mec2-1 strain, at 50.0 µM, active compounds read high
This is part of a sample that, as a whole, favours compounds with a hit. Of some 79,000 tested, about 15% had one in any assay.
growth inhibition values by entry

compound	growth inhibition (%)
CCn1c(C)nc([N+](=O)[O-])c1Sc1ncn[nH]1	-10.3
CC(=O)c1c[nH]cc1CO	7.8
C=CCOC1OC(CO)C(O)C(O)C1O (configuration not stated)	38
CC(C)C(CN)(C(C)C)C(C)C	9.65
CC1(C)OC2C3COc4nc5c(N)ncnc5n4C(O3)C2O1 (configuration not stated)	-5.2
CC1C(c2ccccc2)OC(c2ccccc2)N1C (configuration not stated)	-6.55
CC(=O)Nc1ccc(N)cc1N	-37.8

---

growth inhibition values by entry
Test: NCI Yeast Anticancer Drug Screen. Data for the mlh1 rad18 strain (AID 175)
Details: S. cerevisiae mlh1 rad18 strain growth inhibition; at 50.0 µM; active compounds read high
Compounds without any hit were thinned out: in the full panel of roughly 79,000, 15% have a hit. Activity calls are given as the source filed them. Rule as the data show it: active = growth inhibition above about 70%; inactive = the rest.
reportedMetric: growth inhibition

compound	reportedMetric	resultValue
COc1ccc(OC)c(N2C(=O)C(=O)C(C(C)=O)C2=O)c1 (stereo not given)	growth inhibition	16.5% (inactive)
O=C(O)CCNc1ncnc2nc[nH]c12	growth inhibition	-19.9% (inactive)
O=C(CCc1ccco1)CCc1ccco1	growth inhibition	-0.6% (inactive)
Nc1nc(N)c2nc(-c3ccc(O)cc3)c(-c3ccc(O)cc3)nc2n1	growth inhibition	-13.6% (inactive)
CC1(C)OCC(Cc2ccc3c(c2)OCO3)CO1	growth inhibition	2.25% (inactive)
Cc1ccc(NC(=O)CCC(=O)O)cc1Cl	growth inhibition	-16.2% (inactive)
Cc1nnnn1C12CC3CC(CC(C3)C1)C2	growth inhibition	15.1% (inactive)
COc1cc(CO)c(CC(=O)NCCCc2ccccc2)cc1OC	growth inhibition	-47.5% (inactive)
CC(C)NC(c1ccccc1)c1ccccc1	growth inhibition	2.9% (inactive)
O=S(Cc1cc2c(cc1Br)OCO2)c1ccccc1 (stereo not given)	growth inhibition	-29.1% (inactive)
O=C1CC2(CCc3ccccc32)C(=O)N1CN1CCN(c2ccccn2)CC1 (stereo not given)	growth inhibition	18.1% (inactive)
COc1ccc(-c2c3c(n(C4OC(COC(C)=O)C(OC(C)=O)C(OC(C)=O)C4OC(C)=O)c(=S)c2C#N)CCCC3)cc1 (stereo not given)	growth inhibition	-5% (inactive)
Nc1ncnc(N)c1NC(=O)c1cccc(F)c1	growth inhibition	1.5% (inactive)
O=C(O)C(Cc1ccc(O)cc1)N=Cc1nc(-c2ccccc2)oc1O (stereo not given)	growth inhibition	0.7% (inactive)
COc1ccc(CC2Cc3ccccc3CC(=O)N2)cc1OC (stereo not given)	growth inhibition	-38.1% (inactive)
N#Cc1c(O)cc(=O)n2c1[nH]c1ccccc12	growth inhibition	-4.15% (inactive)
COC(=O)C1=C(O)/C(=C\c2ccccc2)NC1=O	growth inhibition	-5.7% (inactive)
CC(=O)Oc1ccc([N+](=O)[O-])cc1	growth inhibition	34% (inactive)
CCOC(=O)N1C=Cc2c(c3ccccc3n2C)N1C(=O)OCC	growth inhibition	-6.95% (inactive)
CCOc1ccc2nc(NC(=O)C(=O)C3C(=O)C(CC4C(=O)c5ccccc5C4=O)C(=O)CC3(C)C)sc2c1 (stereo not given)	growth inhibition	8.9% (inactive)
Cc1cc(Cl)c(Cl)cc1N	growth inhibition	12.4% (inactive)
Nc1ncc2c(n1)-c1ccccc1OC2NC1CC1 (stereo not given)	growth inhibition	-4.65% (inactive)
CCOc1ccc2ccccc2c1	growth inhibition	-19.7% (inactive)
COC(=O)CC(c1ccc(OC)cc1)C(CC(=O)OC)c1ccc(OC)cc1 (stereo not given)	growth inhibition	-20.1% (inactive)
c1ccc(CN2CCCNCC2)cc1	growth inhibition	-0.05% (inactive)
